The reported numbers originate from patent US20240368263A1.

MEASURED_TARGET: TRAIL/TNFSF10 (R&D Systems, cat. no. 375-TL/CF) (UniProt P50591 114-281)
Sequence (P50591 114-281 limits assumed): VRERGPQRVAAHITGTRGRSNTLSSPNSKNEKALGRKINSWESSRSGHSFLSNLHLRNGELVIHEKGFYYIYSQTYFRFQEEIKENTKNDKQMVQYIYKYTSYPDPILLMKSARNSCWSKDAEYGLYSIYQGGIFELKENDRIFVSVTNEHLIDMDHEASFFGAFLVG
ASSAY_METHOD_TEXT: ELISA, antigen coated at 1 µg/ml, Fab titrated
ENDPOINT: binding result

BINDER: Clone A1 Fab (Fab, V domains shown, Fab) VH: QVQLVQSGAEVKKPGASVKVSCKASGFDIQDTYMHWVRQAPGQGLEWMGRIDPASGHLKYDPKFQNRVTMTRDTSTSTVYMELSSLRSEDTAVYYCARSGGLPDKWGQGTTVTVSS VL: EIVLTQSPGTLSLSPGERATLSCGASSSVSYMYWYQQKPGQAPRLLIYATSNLASGIPDRFSGSGSGTDFTLTISRLEPEDFAVYYCQQWEGNPRTFGGGTKLEIK
ENDPOINT: binding result
READING: no binding
--
BINDER: Clone 14 Fab (Fab, V domains shown, Fab; also called variant 14) VH: QVQLVQSGAEVKKPGASVKVSCKASGFDIQDTYMHWVRQAPGQGLEWMGRIDPASGHIKYDPKFQKRVTMTRDTSTSTVYMELSSLRSEDTAVYYCARSGGLPDMWGQGTTVTVSS VL: EIVLTQSPGTLSLSPGERATLSCRASSSVSYMYWYQQKPGQAPRLLIYATSNLASGIPDRFSGSGSGTDFTLTISRLEPEDFAVYYCQQWQGNPRTFGGGTKLEIK
ENDPOINT: binding result
READING: no binding
--
BINDER: Clone 47 Fab (Fab, V domains shown, Fab; also called variant 47) VH: QVQLVQSGAEVKKPGASVKVSCKASGFDIQDTYMHWVRQAPGQGLEWMGRIEPASGHVKYDPKFQTRVTMTRDTSTSTVYMELSSLRSEDTAVYYCARSGGLPDWWGQGTTVTVSS VL: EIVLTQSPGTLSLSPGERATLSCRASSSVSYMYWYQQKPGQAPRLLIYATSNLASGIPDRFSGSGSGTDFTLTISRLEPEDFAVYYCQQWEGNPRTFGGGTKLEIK
ENDPOINT: binding result
READING: no binding
